Cited source for all entries: ChEMBL document CHEMBL3774354

Test system: Ramos
Test: Cytotoxicity against human Ramos cells after 72 hrs by MTT assay
Assay type: functional, cell-based
reported metric: IC50 (nM)
The response must be a number in nM with no trailing unit.

Query: Param item = COc1ccc(N(C)c2nc(C)nc3ccccc23)cc1OCCCC(=O)NO ; retrieve measured IC50.
Response: 71

###

Experiment: Systemic clearance in Sprague-Dawley rat at 12 mg/kg, po measured up to 24 hrs by LC-MS/MS analysis
Format: ADME, organism-based
Conditions: in vivo
reported metric: CL/F (mL/min/kg)
Please give a number only; it is taken to be in mL/min/kg.

Query: Which measured CL/F value corresponds to COc1ccc(N(C)c2nc(C)nc3ccccc23)cc1OCCCC(=O)NO ?
Response: 215
